- Tested on: Escherichia coli
- Assay Procedure: Antibacterial activity against wild type Escherichia coli AG100 after 18 hrs in presence of polymyxin B nonapeptide by broth dilution method
- Assay type: functional
- Run Parameters: AG100, 18 h
Measured Parameter: MIC (µM)
Form entry: value (µM) — number only.

Worked cases, MIC given:
INSERT INTO results (smiles_record, observed) VALUES
  ('NCCCCCCO[C@@H]1[C@@H](OCc2ccc3ccccc3c2)[C@H](N)C[C@H](N)[C@H]1O[C@H]1O[C@H](CN)[C@@H](OCc2ccc3ccccc3c2)[C@H](OCc2ccc3ccccc3c2)[C@H]1N', 8),
  ('NC[C@H]1O[C@H](O[C@H]2[C@H](OCCCCCCNC(=O)CCCCN(Cc3ccccn3)Cc3ccccn3)[C@@H](OCc3ccc4ccccc4c3)[C@H](N)C[C@@H]2N)[C@H](N)[C@@H](OCc2ccc3ccccc3c2)[C@@H]1OCc1ccc2ccccc2c1', 4);

Okay, next one:
Lookup: Hello, I am looking for reported MIC with Escherichia coli for NC[C@H]1O[C@H](O[C@H]2[C@H](OCCCCCCNC(=O)CCCC(=O)N3CCCNCCNCCCNCC3)[C@@H](OCc3ccc4ccccc4c3)[C@H](N)C[C@@H]2N)[C@H](N)[C@@H](OCc2ccc3ccccc3c2)[C@@H]1OCc1ccc2ccccc2c1 . Could you help?
Found: 2

###

- Test system: Escherichia coli
- Assay Procedure: Antibacterial activity against wild type Escherichia coli AG100 after 18 hrs in presence of polymyxin B nonapeptide by broth dilution method
- Type: functional
- Run Parameters: AG100, 18 h
Measured Parameter: MIC (µM)
# unit: µM | format: bare number

INSERT INTO measurements (molecule, observed) VALUES
  ('NC[C@H]1O[C@H](O[C@H]2[C@H](O)[C@@H](O)[C@H](N)C[C@@H]2N)[C@H](N)[C@@H](O)[C@@H]1O [NEAMINE]', 8);

Here's the next entry for you.
Lookup: Record lookup: for Escherichia coli, what MIC belongs to [N-]=[N+]=NCCCCCCO[C@@H]1[C@@H](OCc2ccc3ccccc3c2)[C@H](N)C[C@H](N)[C@H]1O[C@H]1O[C@H](CN)[C@@H](OCc2ccc3ccccc3c2)[C@H](OCc2ccc3ccccc3c2)[C@H]1N ?
Found: 32

###

MIC values, listed per item
- Tested on: Escherichia coli
- Assay Procedure: Antibacterial activity against AcrAB deficient Escherichia coli AG100A after 18 hrs by broth dilution method
- Type: functional
Use µM as the unit, but write only the number.

INSERT INTO measurements (smiles_record, measured_parameter, unit_symbol, observed) VALUES
  ('NC[C@H]1O[C@H](O[C@H]2[C@H](OCCCCCCNC(=O)CCCC(=O)Nc3cccc(CN(Cc4ccccn4)Cc4ccccn4)n3)[C@@H](OCc3ccc4ccccc4c3)[C@H](N)C[C@@H]2N)[C@H](N)[C@@H](OCc2ccc3ccccc3c2)[C@@H]1OCc1ccc2ccccc2c1', 'MIC', 'µM', 2),
  ('CN1CCN(c2c(F)cc3c(=O)c(C(=O)O)cn(CCF)c3c2F)CC1', 'MIC', 'µM', 0.125),
  ('NC[C@H]1O[C@H](O[C@H]2[C@H](O)[C@@H](O)[C@H](N)C[C@@H]2N)[C@H](N)[C@@H](O)[C@@H]1O', 'MIC', 'µM', 128),
  ('NCCCCCCO[C@@H]1[C@@H](OCc2ccc3ccccc3c2)[C@H](N)C[C@H](N)[C@H]1O[C@H]1O[C@H](CN)[C@@H](OCc2ccc3ccccc3c2)[C@H](OCc2ccc3ccccc3c2)[C@H]1N', 'MIC', 'µM', 8),
  ('NC[C@H]1O[C@H](O[C@H]2[C@H](OCCCCCCNC(=O)CCCC(=O)N3CCCNCCNCCCNCC3)[C@@H](OCc3ccc4ccccc4c3)[C@H](N)C[C@@H]2N)[C@H](N)[C@@H](OCc2ccc3ccccc3c2)[C@@H]1OCc1ccc2ccccc2c1', 'MIC', 'µM', 2),
  ('[N-]=[N+]=NCCCCCCO[C@@H]1[C@@H](OCc2ccc3ccccc3c2)[C@H](N)C[C@H](N)[C@H]1O[C@H]1O[C@H](CN)[C@@H](OCc2ccc3ccccc3c2)[C@H](OCc2ccc3ccccc3c2)[C@H]1N', 'MIC', 'µM', 32),
  ('CC(C)(O/N=C(\C(=O)N[C@@H]1C(=O)N2C(C(=O)[O-])=C(C[n+]3ccccc3)CS[C@H]12)c1csc(N)n1)C(=O)O', 'MIC', 'µM', 0.25),
  ('O=C(N[C@H](CO)[C@H](O)c1ccc([N+](=O)[O-])cc1)C(Cl)Cl', 'MIC', 'µM', 1);

Next compound, MIC to be filled in.
Lookup: Can you look up MIC on Escherichia coli for O=C(O)c1cn(C2CC2)c2cc(N3CCNCC3)c(F)cc2c1=O ?
Found: 0.03
